Catalogue of compounds with associated EC50
System: Ramos cells
Experiment: Cytotoxicity in Ramos cells
Assay type: cell-based
Conditions: Homo sapiens; cytotoxicity in Ramos cells; read-out: Ramos Cell EC50

>  <compound>
CC(C)N/C(=N/C(=O)c1ccc(F)c(F)c1)Nc1cc(C(F)F)[nH]n1 [Compound A-63]

>  <measured parameter>
EC50

>  <result>
> 10 µM

$$$$

// returns reported EC50 for input CC(C)CN/C(=N/C(=O)c1cccc([S+](C)[O-])c1)Nc1cc(-c2ccc(F)cc2)n[nH]1 (stereo not shown) [Compound A-566]
< 10 µM

// returns reported EC50 for input CC(C)NC(=NC(=O)c1ccc(F)cc1)Nc1cc(-c2ccc(Cl)cc2)n[nH]1 [Compound A-255]
< 10 µM

// returns reported EC50 for input CC(C)(C)NC(=NC(=O)c1cccc(C#N)c1)Nc1cc(-c2ccc(F)cc2)n[nH]1 [Compound A-527]
< 10 µM
